- method_notes: DUSP6 inhibitors restoring Erk phosphorylation by chemical complementation, primary imaging in DUSP6-transfected HeLa (AID 609)
- setup_conditions: HeLa MKP-3 transfected, phospho-Erk imaging KS statistic; measured here: nuclear pErk red intensity z-score; at 10 µM; stronger effect = higher value; cells stimulated with TPA for 15 min
quantity_measured: z-score
Write no unit; give the number alone.

Qu. Look up and report measured z-score for this entry: C=CCOc1ccc(/C(O)=C2/C(=O)C(=O)N(CCCN3CCOCC3)C2c2ccccc2)cc1 (stereo unspecified)
Ans. 0.377

Qu. Look up and report measured z-score for this entry: CCOc1ccccc1C(=O)NCCCCCC(=O)O
Ans. 0.2

Qu. Look up and report measured z-score for this entry: CCCCCNc1nc(N2CCCC2)c2c(c1C#N)CCN(C)C2
Ans. -0.491

Qu. Look up and report measured z-score for this entry: CCOC(=O)N1CCN(c2ncnc3c2cnn3-c2ccc(OC)cc2)CC1
Ans. 0.21

Qu. Look up and report measured z-score for this entry: CCCSc1nnc(NC(=O)Nc2ccccc2)s1
Ans. -0.322

Qu. Look up and report measured z-score for this entry: COc1ccccc1NC(=O)CSc1nnc(-c2ccc(NC(C)=O)cc2)n1C
Ans. 0.506

Qu. Look up and report measured z-score for this entry: COc1ccc(CCNc2oc(COc3ccccc3)nc2C#N)cc1
Ans. 0.61

Qu. Look up and report measured z-score for this entry: CC(=O)C1=C(O)C(=O)N(c2ccc(Br)cn2)C1c1ccccc1F (stereo unspecified)
Ans. -1.31

Qu. Look up and report measured z-score for this entry: N#Cc1nc(COc2ccccc2)oc1N1CCCC1
Ans. 0.969

Qu. Look up and report measured z-score for this entry: COCCn1c(SCc2c(F)cccc2Cl)nc2c1c(=O)[nH]c(=O)n2C
Ans. -0.397

Qu. Look up and report measured z-score for this entry: O=C(c1ccccc1)n1c(=S)nc2ccccn21
Ans. 0.415
